System: SARS-CoV-2
test: Inhibitory activity of cytopathic effect (CPE) in VeroE6/TMPRSS2 cells (Test Example 3)
Format: cell-based
study_conditions: Severe acute respiratory syndrome coronavirus 2, VeroE6/TMPRSS2, Delta, AY. 122, strain TY11-927
metric: pEC50
FYI, pEC50 means -log10 of a concentration in mol per litre.

For record `N#CCn1c(N2CC3(C2)CC(F)(F)C3)c(-c2ccc(F)c(Cl)c2)c(=O)n(-c2cncc(Cl)c2)c1=O` the listed pEC50 is 8.31

###

Test system: SARS-CoV-2
test: Inhibitory activity of cytopathic effect (CPE) in VeroE6/TMPRSS2 cells (Test Example 3)
Assay type: cell-based
study_conditions: Severe acute respiratory syndrome coronavirus 2, VeroE6/TMPRSS2, Omicron BA. 1. 1, strain TY38-871
metric: pEC50
Scale note: pEC50 = -log10(concentration in M).

Input `N#CCn1c(N2CC3(C2)CC(F)(F)C3)c(-c2ccc(F)c(Cl)c2)c(=O)n(-c2cncc(Cl)c2)c1=O` . Output pEC50: 8.58
